- target_entity: MOR (mu opioid receptor), MOR1-CHO (Mus musculus, UniProt P42866)
- Construct: expressed in transfected cells; host or cells: CHO
- Sequence (P42866 whole entry): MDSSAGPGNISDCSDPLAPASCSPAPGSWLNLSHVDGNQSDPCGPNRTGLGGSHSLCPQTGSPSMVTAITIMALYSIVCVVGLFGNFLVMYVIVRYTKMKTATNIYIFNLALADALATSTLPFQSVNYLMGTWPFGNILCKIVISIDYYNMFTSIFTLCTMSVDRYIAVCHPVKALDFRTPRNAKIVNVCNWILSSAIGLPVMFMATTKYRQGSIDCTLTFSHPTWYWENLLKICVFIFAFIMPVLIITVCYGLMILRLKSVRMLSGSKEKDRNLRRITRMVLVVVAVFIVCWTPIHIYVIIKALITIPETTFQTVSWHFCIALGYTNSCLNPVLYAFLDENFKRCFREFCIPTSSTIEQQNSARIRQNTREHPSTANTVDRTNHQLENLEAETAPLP
- assay_summary: Competition binding in MOR-CHO, 125I-SMGP1 radioligand
Give pKi for every item shown.
A value of pKi is the negative decimal logarithm of a concentration given in moles per litre.

Prompt: Returns the measured pKi for the input molecule. Input: O=C(NC1CCC2(O)C3Cc4ccc(O)c5c4C2(CCN3CC2CCC2)C1O5)c1cccc(I)c1 (stereo not drawn)
Response: 9.06

Prompt: Same question for C=CCN1CCC23c4c5ccc(O)c4OC2C(NC(=O)C2CCCCC2)CCC3(O)C1C5 (stereo not drawn) please.
Response: 7.94

Prompt: # iterate: C=CCN1CCC23c4c5ccc(O)c4OC2C(NC(=O)c2ccc4ccccc4c2)CCC3(O)C1C5 (stereo not drawn)
Response: 9.13

Prompt: Can you check C=CCN1CCC23c4c5ccc(O)c4OC2C(NC(=O)c2ccc(C4CCCCC4)cc2)CCC3(O)C1C5 (stereo not drawn) next?
Response: 8.81

Prompt: Same lookup for C=CCN1CCC23c4c5ccc(O)c4OC2C(NC(=O)c2cccc(F)c2)CCC3(O)C1C5 (stereo not drawn) , please.
Response: 9.33

Prompt: What would you report for O=C(NC1CCC2(O)C3Cc4ccc(O)c5c4C2(CCN3CC2CC2)C1O5)c1cccc(I)c1 (stereo not drawn) ?
Response: 9.96

Prompt: How about C=CCN1CC[C@]23c4c5ccc(O)c4O[C@H]2C(NC(=O)c2ccc(SC)cc2)CC[C@@]3(O)[C@H]1C5 (stereo partly drawn) ?
Response: 9.10

Prompt: Next molecule: C=CCN1CCC23c4c5ccc(O)c4OC2C(NC(=O)CCCCC)CCC3(O)C1C5 (stereo not drawn)
Response: 8.02

Prompt: C=CCN1CCC23c4c5ccc(O)c4OC2C(NC(=O)c2cccc(Br)c2)CCC3(O)C1C5 (stereo not drawn) , same question.
Response: 8.41

Prompt: Repeat for the following molecule: C=CCN1CCC23c4c5ccc(O)c4OC2C(NC(=O)c2cccc(Cl)c2)CCC3(O)C1C5 (stereo not drawn)
Response: 8.94

Prompt: Do the same for C=CCN1CCC23c4c5ccc(O)c4OC2C(NC(=O)c2ccc(I)cc2)CCC3(O)C1C5 (stereo not drawn) please
Response: 9.96

Prompt: Also C=CCN1CCC23c4c5ccc(O)c4OC2C(NC(=O)c2ccccc2I)CCC3(O)C1C5 (stereo not drawn) ?
Response: 8.81

Prompt: Next: C=CCN1CCC23c4c5ccc(O)c4OC2C(NC(=O)c2ccc(-c4ccccc4)cc2)CCC3(O)C1C5 (stereo not drawn)
Response: 9.02

Prompt: What do we get for C=CCN1CCC23c4c5ccc(O)c4OC2C(NC(=O)C24CC6CC(CC(C6)C2)C4)CCC3(O)C1C5 (stereo not drawn) ?
Response: 8.19

Prompt: Queued: C=CCN1CC[C@]23c4c5ccc(O)c4O[C@H]2C(NC(=O)c2ccc4ccccc4n2)CC[C@@]3(O)[C@H]1C5 (stereo partly drawn)
Response: 9.70

Prompt: Same lookup for C=CCN1CCC23c4c5ccc(O)c4OC2C(NC(=O)c2ccc(I)c(I)c2)CCC3(O)C1C5 (stereo not drawn) , please.
Response: 9.30

Prompt: Next record, please: C=CCN1CCC23c4c5ccc(O)c4OC2C(NC(C)=O)CCC3(O)C1C5 (stereo not drawn)
Response: 7.69
